All figures here come from patent US20240067651A1.

Procedure Details: Plasma Stability
Assay type: in vitro ADME, human
Experimental Conditions: % remaining @ 1 h
Recorded human Plasma stability values for a group of compounds are listed next.
Measurement Type: human Plasma stability (% @ 1 h)

>>> data_value("CC(C)OCCn1c(=S)n(COC(=O)[C@@H](C)N)c(=O)c2c1ccn2COC(=O)[C@@H](C)N.O=C(O)C(F)(F)F.O=C(O)C(F)(F)F [Example 293]")
25
>>> data_value("CC(C)OCCn1c(=S)[nH]c(=O)c2c1ccn2COC(=O)[C@@H](N)Cc1ccccc1.O=C(O)C(F)(F)F [Example 308]")
2.5

###

Recorded human Plasma stability values for a group of compounds are listed next.
Procedure Details: Plasma Stability
Format: in vitro ADME, human
Experimental Conditions: % remaining at 1 h; human plasma, 1 μM, 37° C.
Measurement Type: human Plasma stability (% remaining)

>>> data_value("CC(C)OCCn1c(=S)n(COC(=O)C2CCNCC2)c(=O)c2c1ccn2COC(=O)CCC(=O)O.O=C(O)C(F)(F)F")
8
>>> data_value("CC(C)OCCn1c(SCOC(=O)N(C)c2ccc(F)cc2)nc(=O)c2[nH]ccc21")
99
>>> data_value("CC(C)OCCn1c(SCOC(=O)N(CC(F)(F)F)CC(F)(F)F)nc(=O)c2c1ccn2COC(=O)N(CC(F)(F)F)CC(F)(F)F")
99
